system: Chordin-like protein 2 (CHRDL2); assay: compounds binding chordin-like 2 – biochemical, small-molecule microarray, 635 nm fluorescence, primary screen (AID 1126); details: fluorescence 635 nm, higher = more signal;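 note: printed compound slides probed with Chrdl2 protein at 4 µg/mL for 1 h at 4 C; score merges 667 nm emission intensity with signal to noise over three replicate slides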
Rule: YES for composite z-score not less than -0.1, NO for anything less.

Use the examples below as a reference point.
INSERT INTO measurements (molecule, category) VALUES
  ('C=CC[C@]1(C(=O)N(C)C)N=C(c2ccc(OCCCO)cc2)O[C@H]1c1ccccc1', 'NO'),
  ('CC(C)NC(=O)[C@@H]1c2ccccc2C(=O)N(Cc2cc(C(F)(F)F)cc(C(F)(F)F)c2)[C@H]1c1ccc(CO)cc1', 'YES'),
  ('CC1CC/C=C\[C@H]2OC34C=CCN(c5ccc(Cl)cc5)C(=O)[C@H]3N(C(CO)C(C)C)C(=O)[C@]4(C)C2C(=O)O1 (stereo partly drawn)', 'NO');

Q. Would you say `COc1ccc(C#Cc2ccc3c(c2)[C@]2(C(=O)N3)[C@H](c3ccc(OCCO)cc3)N3[C@H](c4ccccc4)[C@H](c4ccccc4)OC(=O)[C@H]3[C@@H]2C(=O)N2CCN(c3ncccn3)CC2)cc1` shows composite z-score at minimum -0.1?
A. NO

Q. Would you say `Cc1ccc(S[C@]2(C(=O)O)CC(=O)N(C3CCCCC3)[C@@H]2c2ccc(CO)cc2)cc1` shows composite z-score at minimum -0.1?
A. NO

Q. Would you say `COCCCNC(=O)[C@]1(CCS(=O)(=O)c2ccccc2)N=C(c2ccc(OCCCO)cc2)O[C@@H]1c1ccccc1` shows composite z-score at minimum -0.1?
A. YES

The measurements presented in this section are drawn from PubChem BioAssay.
